# target.under.test: Jak2 (UniProt O60674)
# Sequence (O60674 whole entry, looked up): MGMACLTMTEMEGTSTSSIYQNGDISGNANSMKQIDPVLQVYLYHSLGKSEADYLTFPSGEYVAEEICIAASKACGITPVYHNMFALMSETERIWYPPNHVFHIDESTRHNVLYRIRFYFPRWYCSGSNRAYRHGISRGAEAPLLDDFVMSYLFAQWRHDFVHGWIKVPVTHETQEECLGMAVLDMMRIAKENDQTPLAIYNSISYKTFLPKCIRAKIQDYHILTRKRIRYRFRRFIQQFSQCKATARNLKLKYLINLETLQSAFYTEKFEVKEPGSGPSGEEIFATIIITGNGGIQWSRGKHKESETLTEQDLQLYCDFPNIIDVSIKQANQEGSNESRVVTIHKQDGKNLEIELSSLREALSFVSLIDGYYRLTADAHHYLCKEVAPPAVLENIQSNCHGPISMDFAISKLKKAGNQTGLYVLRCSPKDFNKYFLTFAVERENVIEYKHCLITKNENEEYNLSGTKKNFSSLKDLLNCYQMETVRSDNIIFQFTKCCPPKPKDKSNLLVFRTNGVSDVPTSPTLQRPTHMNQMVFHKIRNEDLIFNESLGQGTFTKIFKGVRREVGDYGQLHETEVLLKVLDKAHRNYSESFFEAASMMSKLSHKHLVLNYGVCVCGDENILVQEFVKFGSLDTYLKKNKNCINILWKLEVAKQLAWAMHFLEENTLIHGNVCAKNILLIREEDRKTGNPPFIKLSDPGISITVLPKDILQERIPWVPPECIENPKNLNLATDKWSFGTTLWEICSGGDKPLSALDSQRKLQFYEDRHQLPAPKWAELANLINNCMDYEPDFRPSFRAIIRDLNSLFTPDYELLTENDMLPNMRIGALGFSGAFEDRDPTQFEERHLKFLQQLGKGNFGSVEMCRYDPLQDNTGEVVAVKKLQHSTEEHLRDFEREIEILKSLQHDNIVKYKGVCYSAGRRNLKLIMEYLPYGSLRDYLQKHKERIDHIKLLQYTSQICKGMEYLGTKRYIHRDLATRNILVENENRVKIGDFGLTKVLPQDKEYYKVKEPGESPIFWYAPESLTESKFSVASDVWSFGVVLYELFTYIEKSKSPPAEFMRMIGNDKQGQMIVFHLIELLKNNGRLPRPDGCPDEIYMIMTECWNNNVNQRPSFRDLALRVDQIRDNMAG
# protocol.summary: phosphorylation enrichment, bacterial display (enrichment ratio); higher = better substrate or ligand; peptides without Tyr show the background
value.kind: phosphorylation enrichment
Answers are plain numbers.

Illustrative cases are given below, each with its answer.
> print(dat)
                        residue.string                  value.kind  result
1             VCDSDYSASRW [LRP5_Y1552]  phosphorylation enrichment   0.731
2  FGPPQYNMQFS [ERBB2IP_Y977_I979M_YF]  phosphorylation enrichment    0.49
3           SNKLFYQLEQE [PDPR_Y110_YF]  phosphorylation enrichment     1.3
4    ILGRTHFVNHE [NEDD4_Y627_Y627H_YF]  phosphorylation enrichment   0.485
5             ADSLRYIYPKL [EIF2B3_Y92]  phosphorylation enrichment   0.634

Field: phosphorylation enrichment. Fill in for each record below.
1. SDVLSYGVTMW [ZAP70_Y525_W523L]
2. EWLRRHLENGK [HLA-A_Y195_Y195H]

OUT:
1.04
0.824

====

Provide the reported phosphorylation enrichment of each item.
# target.under.test: Fes (UniProt P07332)
# Sequence (P07332 whole entry, looked up): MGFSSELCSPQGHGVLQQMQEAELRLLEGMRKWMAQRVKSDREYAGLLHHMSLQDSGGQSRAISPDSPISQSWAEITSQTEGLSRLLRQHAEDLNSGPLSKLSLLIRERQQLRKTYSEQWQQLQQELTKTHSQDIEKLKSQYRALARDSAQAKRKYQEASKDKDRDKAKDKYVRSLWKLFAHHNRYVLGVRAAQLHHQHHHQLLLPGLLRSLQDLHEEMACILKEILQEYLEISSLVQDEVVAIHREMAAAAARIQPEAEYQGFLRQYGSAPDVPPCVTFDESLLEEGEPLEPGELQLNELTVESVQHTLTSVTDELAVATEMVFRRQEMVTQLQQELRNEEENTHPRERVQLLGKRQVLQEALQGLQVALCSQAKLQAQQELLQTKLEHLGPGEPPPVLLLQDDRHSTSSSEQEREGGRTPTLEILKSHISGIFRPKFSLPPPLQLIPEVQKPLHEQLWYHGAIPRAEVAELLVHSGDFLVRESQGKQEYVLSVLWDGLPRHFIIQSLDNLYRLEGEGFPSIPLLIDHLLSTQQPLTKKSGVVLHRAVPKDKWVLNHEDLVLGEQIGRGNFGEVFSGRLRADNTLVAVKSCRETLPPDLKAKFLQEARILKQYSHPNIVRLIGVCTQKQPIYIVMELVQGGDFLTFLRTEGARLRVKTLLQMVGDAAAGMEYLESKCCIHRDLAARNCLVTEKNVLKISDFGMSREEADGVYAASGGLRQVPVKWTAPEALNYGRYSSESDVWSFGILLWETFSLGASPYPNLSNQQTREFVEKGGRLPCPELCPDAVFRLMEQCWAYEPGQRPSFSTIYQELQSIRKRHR
# protocol.summary: phosphorylation enrichment, bacterial display (enrichment ratio); higher = better substrate or ligand; peptides without Tyr show the background
Give bare numbers.

Illustrative cases are given below, each with its answer.
> print(dat)
                    residue.string  result
1      VPVDGYISGLL [PAK6_Y81_M76V]    1.01
2    LEAVSYSSPYA [RNLS_Y190_R193P]    1.03
3    ATKNDYWAMLA [WWOX_Y287_P282A]       1
4  VVEYGYEFFAK [PPP1CB_Y254_D252Y]    1.56

IN: Annotate the sequence VYYYSYLLKNH [PTEN_Y180] with its measured phosphorylation enrichment.
OUT: 1.33

====

Provide the reported SH2 binding enrichment of each item.
# target.under.test: c-Src SH2
# protocol.summary: SH2 binding enrichment of the phosphorylated peptide, bacterial display (enrichment ratio); higher = better substrate or ligand; peptides without Tyr show the background
Numbers only.

> print(dat)
                   residue.string  result
1        CLAKMYFSAVD [CP_Y539_YF]   0.606
2  FLENFYDLEKD [MMP3_Y42_K45E_YF]   0.677
3  LTVVIYVLVGR [EPHA3_Y561_I564V]    2.03
4   LEAVSYSSPYA [RNLS_Y190_R193P]    2.86
5   RLASVYTKRCS [CPT2_Y508_P504L]   0.611

Field: SH2 binding enrichment. Fill in for each record below.
1. PIPAAYNRFDQ [CDC73_Y290_YF]
2. YGEYRYRSVIK [CFTR_Y517_D513G]

OUT:
1: 0.579; 2: 0.817

====

# target.under.test: Fyn (UniProt P06241)
# Sequence (P06241 whole entry, looked up): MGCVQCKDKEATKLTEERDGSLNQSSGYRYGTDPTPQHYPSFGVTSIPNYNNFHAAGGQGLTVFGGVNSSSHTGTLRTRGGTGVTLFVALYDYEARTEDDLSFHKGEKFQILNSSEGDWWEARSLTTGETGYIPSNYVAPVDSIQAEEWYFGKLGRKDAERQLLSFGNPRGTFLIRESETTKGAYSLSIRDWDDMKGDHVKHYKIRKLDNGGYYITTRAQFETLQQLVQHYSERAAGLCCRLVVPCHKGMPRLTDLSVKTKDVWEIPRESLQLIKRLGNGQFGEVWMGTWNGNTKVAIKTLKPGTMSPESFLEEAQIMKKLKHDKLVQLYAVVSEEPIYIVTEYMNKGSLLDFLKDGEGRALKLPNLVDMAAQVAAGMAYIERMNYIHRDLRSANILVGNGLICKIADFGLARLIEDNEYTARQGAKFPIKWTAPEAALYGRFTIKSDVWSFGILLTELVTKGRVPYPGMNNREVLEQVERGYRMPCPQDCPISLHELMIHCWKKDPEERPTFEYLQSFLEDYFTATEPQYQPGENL
# protocol.summary: phosphorylation enrichment, bacterial display (enrichment ratio); higher = better substrate or ligand; peptides without Tyr show the background
Record y whenever phosphorylation enrichment is at 0.6 or higher; record n when lower.

Solved cases below.
> print(dat)
                        residue.string  group.label
1  EQKKFSNAMKK [SCN5A_Y1495_Y1495S_YF]            n
2         PHQTIYGALMI [FGF23_Y70_S71G]            y
3            DAMQTYNGNDE [TSPAN7_Y131]            n

IN: Hi, just wondering whether LPKVSYMKAID [GLRA1_Y307_V308M] shows phosphorylation enrichment of 0.6 or higher.
OUT: y

====

# target.under.test: Grb2 SH2 (UniProt P62993)
# Sequence (P62993 whole entry, looked up): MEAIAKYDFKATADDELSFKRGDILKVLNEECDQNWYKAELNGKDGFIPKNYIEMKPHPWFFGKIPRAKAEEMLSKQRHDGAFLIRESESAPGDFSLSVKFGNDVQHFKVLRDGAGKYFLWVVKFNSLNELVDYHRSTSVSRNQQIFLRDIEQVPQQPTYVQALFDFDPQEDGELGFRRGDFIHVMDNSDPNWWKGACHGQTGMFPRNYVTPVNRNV
# protocol.summary: SH2 binding enrichment of the phosphorylated peptide, bacterial display (enrichment ratio); higher = better substrate or ligand; peptides without Tyr show the background
Record 1 whenever SH2 binding enrichment is at 0.9 or higher; record -1 when lower.

> print(dat)
               residue.string          target.under.test  group.label
1  PPGRSYSPFDF [TNS1_Y793_YF]  Grb2 SH2 (UniProt P62993)            1

Now turn to the next sequence.
IN: Hi, just wondering whether KKFPDYIQIAR [SGMS2_Y59_M64R_YF] shows SH2 binding enrichment of 0.9 or higher.
OUT: 1

====

Provide the reported phosphorylation enrichment of each item.
# target.under.test: MERTK (UniProt Q12866)
# Sequence (Q12866 whole entry, looked up): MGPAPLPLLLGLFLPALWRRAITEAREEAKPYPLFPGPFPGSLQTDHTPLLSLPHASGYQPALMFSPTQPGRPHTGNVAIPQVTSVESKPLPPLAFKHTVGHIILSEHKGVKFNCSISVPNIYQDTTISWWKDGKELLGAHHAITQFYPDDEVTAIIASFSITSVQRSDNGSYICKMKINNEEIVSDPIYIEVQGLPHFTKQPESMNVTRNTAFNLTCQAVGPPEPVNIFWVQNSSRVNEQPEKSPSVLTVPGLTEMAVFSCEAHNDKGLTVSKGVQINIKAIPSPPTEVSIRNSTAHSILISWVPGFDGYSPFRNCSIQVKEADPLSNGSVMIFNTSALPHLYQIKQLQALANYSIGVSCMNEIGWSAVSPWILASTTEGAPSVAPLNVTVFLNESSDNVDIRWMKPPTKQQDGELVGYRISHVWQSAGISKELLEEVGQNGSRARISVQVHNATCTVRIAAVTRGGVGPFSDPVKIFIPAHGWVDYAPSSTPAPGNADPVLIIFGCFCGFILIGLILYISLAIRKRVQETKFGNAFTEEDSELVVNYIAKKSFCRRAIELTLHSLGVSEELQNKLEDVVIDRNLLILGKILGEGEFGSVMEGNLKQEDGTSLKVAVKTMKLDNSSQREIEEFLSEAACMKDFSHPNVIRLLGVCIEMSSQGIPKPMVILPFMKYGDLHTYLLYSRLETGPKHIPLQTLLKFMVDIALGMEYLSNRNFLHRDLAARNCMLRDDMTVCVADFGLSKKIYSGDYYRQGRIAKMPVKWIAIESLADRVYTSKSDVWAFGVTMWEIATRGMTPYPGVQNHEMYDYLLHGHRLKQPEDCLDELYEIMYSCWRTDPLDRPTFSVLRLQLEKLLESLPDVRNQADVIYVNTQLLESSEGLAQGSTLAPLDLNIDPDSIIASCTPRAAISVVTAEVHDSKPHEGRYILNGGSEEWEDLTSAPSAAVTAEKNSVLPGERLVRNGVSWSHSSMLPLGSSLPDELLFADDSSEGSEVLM
# protocol.summary: phosphorylation enrichment, bacterial display (enrichment ratio); higher = better substrate or ligand; peptides without Tyr show the background
Give bare numbers.

Illustrative cases are given below, each with its answer.
> print(dat)
                  residue.string                  value.kind  result
1    LQTFRYHGHSM [PDHA1_Y289_YF]  phosphorylation enrichment   0.716
2  SLIDMYSEVPD [OPA1_Y268_L272P]  phosphorylation enrichment   0.604

Field: phosphorylation enrichment. Fill in for each record below.
1. KLPDAYEPLIL [G6PD_Y437_R439P]
2. SYDLDYDSVQP [MYC_Y16_N11S]
3. IGSQRYQLGVR [RB1_Y446_K447Q]
4. LGKLIYPVGFW [NTHL1_Y177]

OUT:
1. 0.498
2. 0.443
3. 0.385
4. 0.634

Field: phosphorylation enrichment. Fill in for each record below.
1. SVTCTYSPAIN [TP53_Y126_L130I]
2. LLEGKYEWQEV [CDKN1B_Y74_P69L]

OUT:
1. 0.466
2. 0.964

====

# target.under.test: MERTK (UniProt Q12866)
# protocol.summary: phosphorylation enrichment, bacterial display (enrichment ratio); higher = better substrate or ligand; peptides without Tyr show the background
Record 1 whenever phosphorylation enrichment is at 0.5 or higher; record 0 when lower.

> print(dat)
                    residue.string  group.label
1  KYVVVYFRETD [IL17RB_Y447_I451T]            0
2       RDHFGYRQSVT [CD55_Y245_YF]            0
3    EEGENYQKGEQ [CHGB_Y173_R178Q]            1
4   YSMGCYEFSLG [HMGCL_Y198_I200F]            1
5   ADRSCYDLSCR [GARS1_Y467_H472R]            0
6           EGWQVYRLGAR [MISP_Y95]            0

IN: Hi, just wondering whether RVEDACILTCN [CCT6A_Y229_Y229C] shows phosphorylation enrichment of 0.5 or higher.
OUT: 1

IN: Hi, just wondering whether GSESDYIIMPN [SCARB1_Y133_V135I] shows phosphorylation enrichment of 0.5 or higher.
OUT: 1

IN: Hi, just wondering whether DSSIRYLQEIY [FGG_Y135] shows phosphorylation enrichment of 0.5 or higher.
OUT: 0

IN: Hi, just wondering whether EKEQNYDLTQV [ECD_Y448_E452Q] shows phosphorylation enrichment of 0.5 or higher.
OUT: 1

IN: Hi, just wondering whether FQLENYCNGGG [INS_Y108_YF] shows phosphorylation enrichment of 0.5 or higher.
OUT: 0

====

# Test system: Fer (mouse)
# protocol.summary: phosphorylation enrichment, bacterial display (enrichment ratio); higher = better substrate or ligand; peptides without Tyr show the background
value.kind: phosphorylation enrichment

> print(dat)
                       residue.string  result
1            VNFDDYTVNLG [GFPT1_Y367]   0.493
2            CDIPRYIVSQL [MAST2_Y461]   0.454
3       EAVSIYQFYGQ [CBLC_Y402_H405Y]    9.22
4  SHNELYFEAAE [VANGL1_Y344_E347A_YF]   0.476
5     HCEDGYPGGSD [CTNND1_Y221_Y217C]   0.672

Field: phosphorylation enrichment. Fill in for each record below.
1. NTGVFYDLFGG [PTPN11_Y63_D61V_YF]
2. KKYFSYAWPFY [BRDT_Y291_H288Y]
3. LERFIYNRQEF [HLA-DPB1_Y59_E62Q_YF]

OUT:
1: 2.86; 2: 0.395; 3: 0.427

Field: phosphorylation enrichment. Fill in for each record below.
1. NAPNSYGRRPS [CDKN2A_Y44_I49S]
2. SHNKYYMLVAH [MFSD8_Y134_R139H]
3. SHISGYAALRR [RAPH1_Y1226_T1228A]

OUT:
[0.588, 1.09, 0.432]

====

Provide the reported phosphorylation enrichment of each item.
# target.under.test: Hck (UniProt P08631)
# Sequence (P08631 whole entry, looked up): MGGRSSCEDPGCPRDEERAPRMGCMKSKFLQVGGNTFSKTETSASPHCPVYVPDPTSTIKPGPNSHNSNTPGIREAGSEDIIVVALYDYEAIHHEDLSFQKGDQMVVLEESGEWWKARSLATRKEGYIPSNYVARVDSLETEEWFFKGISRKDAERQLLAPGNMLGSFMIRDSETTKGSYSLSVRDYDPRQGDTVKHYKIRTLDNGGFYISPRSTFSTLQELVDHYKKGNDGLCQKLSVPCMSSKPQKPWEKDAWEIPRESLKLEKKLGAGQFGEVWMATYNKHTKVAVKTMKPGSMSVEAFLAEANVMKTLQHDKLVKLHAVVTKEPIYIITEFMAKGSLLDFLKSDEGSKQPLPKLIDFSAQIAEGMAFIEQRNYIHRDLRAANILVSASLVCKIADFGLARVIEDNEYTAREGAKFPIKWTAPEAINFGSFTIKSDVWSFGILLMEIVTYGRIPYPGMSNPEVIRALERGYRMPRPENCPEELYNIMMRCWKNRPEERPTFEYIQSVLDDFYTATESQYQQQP
# protocol.summary: phosphorylation enrichment, bacterial display (enrichment ratio); higher = better substrate or ligand; peptides without Tyr show the background
One number for each entry.

Illustrative cases are given below, each with its answer.
> print(dat)
                    residue.string     target.under.test  result
 1        NFDRVYIYHLR [MYOF_Y1137]  Hck (UniProt P08631)   0.782
 2         FQKNIYSEELR [LMNA_Y211]  Hck (UniProt P08631)    1.07
 3   YKEQGYHRLPS [RIN1_Y681_P686S]  Hck (UniProt P08631)   0.279
 4   RCYVYYYSYLL [PTEN_Y177_R173C]  Hck (UniProt P08631)    1.08
 5   PLDEEYFTLQI [TP53_Y327_G325E]  Hck (UniProt P08631)     1.2
 6  SHLSSYTTHPQ [NIPBL_Y195_P192L]  Hck (UniProt P08631)    0.44
 7  FLENFYDLEKD [MMP3_Y42_K45E_YF]  Hck (UniProt P08631)    1.39
 8   ECIEFYELDKK [PMM2_Y145_R141C]  Hck (UniProt P08631)   0.572
 9  TSYQMYDKGLV [IARS2_Y231_F227S]  Hck (UniProt P08631)    1.13
10         AKLDEYIAIAK [RCOR3_Y46]  Hck (UniProt P08631)   0.473

Field: phosphorylation enrichment. Fill in for each record below.
1. ADRSCYDLSCR [GARS1_Y467_H472R]
2. EWLRRHLENGK [HLA-A_Y195_Y195H]
3. MHFSNYVSKGS [PDGFRA_Y849_D846Y_YF]
4. ESMLRYDVYGG [STOX1_Y607_E608D]
5. VDLIVYLRTNP [TK2_Y181]
6. QKPLDYYRVNL [GALE_Y104]

OUT:
0.594
0.409
0.457
1.3
0.352
0.908

Field: phosphorylation enrichment. Fill in for each record below.
1. LESETYRRLLD [KRT12_Y429_I426S]
2. HEKKVYSFCGT [RPS6KA3_Y226_A225V]
3. HFIKLYEEKTG [PARP1_Y618_M615I]
4. YPPTHYIRRVP [SLC4A11_Y820]
5. KGTAGYTTVAV [RET_Y752_R749T]
6. DPGVSYHTREE [PDHA1_Y301_R302H]
7. VPVNGYQPVTA [ROR2_Y824_P828T]

OUT:
1: 0.697; 2: 0.645; 3: 0.828; 4: 0.369; 5: 0.357; 6: 0.551; 7: 0.348

Field: phosphorylation enrichment. Fill in for each record below.
1. DNEYAYLKAII [HNF4A_Y288]
2. AIGYEYSEINI [SIGLEC12_Y588]
3. IKAGAYDFPSP [CAMK2A_Y230]
4. SLMGCYNLTFM [HS6ST3_Y323_V320M]
5. SYDLDYDSVQP [MYC_Y16_N11S]
6. LGKLIYPVGFW [NTHL1_Y177]
7. AFLLLYFNDTH [BMP15_Y235]

OUT:
1. 1.58
2. 2.3
3. 0.419
4. 0.724
5. 0.762
6. 0.746
7. 0.482

FYI, the data here is from the supplement of paper PMC10065799.
